# experimental system: Menin (Homo sapiens) (UniProt O00255)
# Sequence (O00255 whole entry, looked up): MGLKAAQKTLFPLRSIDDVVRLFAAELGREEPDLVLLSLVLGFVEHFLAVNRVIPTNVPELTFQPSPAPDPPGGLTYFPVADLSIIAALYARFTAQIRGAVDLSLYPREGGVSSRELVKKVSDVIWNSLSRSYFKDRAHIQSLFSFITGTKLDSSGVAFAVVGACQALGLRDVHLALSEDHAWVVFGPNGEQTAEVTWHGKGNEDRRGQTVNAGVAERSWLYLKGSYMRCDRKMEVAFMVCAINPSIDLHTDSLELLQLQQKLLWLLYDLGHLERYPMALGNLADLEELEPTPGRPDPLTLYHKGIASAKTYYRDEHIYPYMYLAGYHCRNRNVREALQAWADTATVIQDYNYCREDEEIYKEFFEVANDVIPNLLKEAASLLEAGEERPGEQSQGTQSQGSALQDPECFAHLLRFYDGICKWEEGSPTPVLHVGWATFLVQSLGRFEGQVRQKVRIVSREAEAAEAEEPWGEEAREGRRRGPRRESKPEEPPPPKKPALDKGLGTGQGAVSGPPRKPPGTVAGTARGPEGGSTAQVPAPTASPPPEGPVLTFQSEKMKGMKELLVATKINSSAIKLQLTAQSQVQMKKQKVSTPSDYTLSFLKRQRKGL
# method summary: qHTS Assay for Inhibitors Targeting the Menin-MLL Interaction in MLL Related Leukemias: Competition With Texas Red Labeled MLL-derived Mutant Peptide
# condition: fluorescence polarization; series mostly up to 61.6 µM
The whole screen tested about 270,000 compounds, of which about 620 (0.23%) were called active. Another 12% or so got no clear call; they are omitted. For the sample, actives were picked, then their nearest neighbours and some compounds at random.
experimental readout: outcome

test smiles: COc1ccc(Cn2c(=S)[nH]c3cc(C(=O)NCCCN4CCOCC4)ccc3c2=O)cc1
experimental system: Menin (Homo sapiens) (UniProt O00255)
result: inactive
//
test smiles: O=C(NCCCO)c1cc2c([nH]c3ccccc32)c(-c2ccc(F)cc2)n1
experimental system: Menin (Homo sapiens) (UniProt O00255)
result: inactive
//
test smiles: COC(=O)c1sc(=S)n(-c2ccccc2)c1N
experimental system: Menin (Homo sapiens) (UniProt O00255)
result: inactive
